Target: Lck (Homo sapiens, UniProt P06239)
Construct: Kinases are expressed as either kinase domains or full length constructs; made in house
Sequence (P06239 whole entry, species assumed, the tested form may be a part): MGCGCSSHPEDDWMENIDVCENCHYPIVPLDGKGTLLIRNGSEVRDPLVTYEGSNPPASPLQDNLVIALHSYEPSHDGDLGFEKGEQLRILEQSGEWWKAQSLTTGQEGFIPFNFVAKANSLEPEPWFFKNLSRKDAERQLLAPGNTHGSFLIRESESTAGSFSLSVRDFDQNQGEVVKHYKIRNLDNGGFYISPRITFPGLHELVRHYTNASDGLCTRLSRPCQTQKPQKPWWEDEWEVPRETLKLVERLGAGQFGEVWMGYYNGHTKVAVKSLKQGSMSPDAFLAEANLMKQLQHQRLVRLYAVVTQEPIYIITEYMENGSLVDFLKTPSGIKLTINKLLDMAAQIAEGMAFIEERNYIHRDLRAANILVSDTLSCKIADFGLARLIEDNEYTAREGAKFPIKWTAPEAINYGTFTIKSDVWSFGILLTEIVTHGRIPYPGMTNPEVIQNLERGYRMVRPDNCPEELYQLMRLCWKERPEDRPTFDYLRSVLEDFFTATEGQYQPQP
Experiment: Kinase inhibition assay (33P transfer), Lck
Type: biochemical
Settings: Table 3; read-out: Lck-1
pIC50: −log10 of the molar value.
value_type: pIC50

Identify measured pIC50 corresponding to COc1cc(Nc2ncnc(N(CC(=O)O)c3ccc4c(c3)OCO4)n2)cc(OC)c1OC [Compound 319]
< 5.01

---

Target: Itk (Homo sapiens)
Construct: Kinases are expressed as either kinase domains or full length constructs; made in house
Test: Kinase inhibition assay (33P transfer), Itk
Format: biochemical
Conditions: read-out: Itk-1
pIC50: −log10 of the molar value.
Examples of compounds with documented pIC50 follow.

The following compounds have reported results that may help.
> print(dat)
                                   compound  experimental.result
1  CN(c1cccc(Cl)c1)c1ncnc(Nc2cccc(Cc3nnn[nH]3)c2)n1               < 4.94
2  COc1cc(Nc2ncnc(-n3c(NCc4nccs4)nc4ccccc43)n2)cc(OC)c1OC               < 5.04
3       CN(c1cccc(Cl)c1)c1ncnc(Nc2ccncc2)n1               < 4.84
4  COc1ccc(-c2ncnc(Nc3cc(OC)c(OC)c(OC)c3)n2)cc1OC         4.95 to 5.06
5  COc1cc(Nc2ncnc(Nc3cc(-c4ccc(C(=O)O)cc4)n[nH]3)n2)cc(OC)c1OC         5.01 to 5.12
6  COc1cc(Nc2ncnc(-c3ccc(NCc4ccccc4)nc3)n2)cc(OC)c1OC               < 4.99
7  O=c1[nH]c2ccccc2n1-c1ncnc(Nc2ccc(O)cc2)n1         4.85 to 4.96

# ---- query compound ----
Report value only: pIC50, Itk (Homo sapiens), COc1cc(Nc2ncnc(-n3c(NC4CCCc5ccccc54)nc4ccccc43)n2)cc(OC)c1OC (centres unmarked) [Compound 587]
< 5.07

---

Examples of compounds with documented IC50 follow.
Molecular target: AKT (Homo sapiens, UniProt Q9Y243)
Construct: Kinases are expressed as either kinase domains or full length constructs; made in house
Sequence (Q9Y243 whole entry, the tested form may be a part): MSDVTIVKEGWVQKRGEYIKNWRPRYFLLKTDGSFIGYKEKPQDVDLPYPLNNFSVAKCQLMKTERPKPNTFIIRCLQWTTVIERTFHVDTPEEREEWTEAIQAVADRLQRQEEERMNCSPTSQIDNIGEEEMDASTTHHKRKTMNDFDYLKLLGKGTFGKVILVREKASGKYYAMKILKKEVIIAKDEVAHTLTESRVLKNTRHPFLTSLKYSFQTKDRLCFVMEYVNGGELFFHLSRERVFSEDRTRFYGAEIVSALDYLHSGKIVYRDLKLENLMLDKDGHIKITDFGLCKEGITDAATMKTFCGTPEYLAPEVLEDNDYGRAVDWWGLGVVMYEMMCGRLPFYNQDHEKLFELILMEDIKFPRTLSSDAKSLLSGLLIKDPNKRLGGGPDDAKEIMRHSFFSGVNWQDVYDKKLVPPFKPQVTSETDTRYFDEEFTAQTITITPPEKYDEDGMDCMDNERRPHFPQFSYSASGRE
Experiment: Kinase inhibition assay (33P transfer), AKT
Assay type: biochemical
Conditions: Table 2, kinase inhibition class; read-out: AKT3-1

> print(dat)
                            compound.smiles  value.type  experimental.result
1  COc1cc(Nc2ncnc(Nc3ccc4c(c3)CCC4)n2)cc(OC)c1OC        IC50            > 11.4 µM
2  COc1cc(Nc2ncnc(-n3c(NCc4ccccn4)nc4ccccc43)n2)cc(OC)c1OCCn1ccnn1        IC50            > 7.96 µM
3  COc1cc(Nc2ncnc(N(CCC(C)C)c3ccc(Cl)cc3)n2)cc(OC)c1OC        IC50            > 9.83 µM
4  COc1cc(Nc2ncnc(-c3ccc(NCCCN)nc3)n2)cc(OC)c1OC        IC50            > 10.9 µM
5       CN(c1cccc(Cl)c1)c1ncnc(Nc2ccncc2)n1        IC50            > 14.4 µM

Report value only: IC50, AKT (Homo sapiens, UniProt Q9Y243), COc1cc(Nc2ncnc(-n3c(NCC(C)C)nc4ccccc43)n2)cc(OC)c1OC
> 10 µM

Report value only: IC50, AKT (Homo sapiens, UniProt Q9Y243), COc1cc(Nc2ncnc(-n3c(N)nc4ccccc43)n2)cc(OC)c1OCCN1CCOCC1
> 9.14 µM

Report value only: IC50, AKT (Homo sapiens, UniProt Q9Y243), COc1cc(Nc2ncnc(-c3ccc(NCCCO)nc3)n2)cc(OC)c1OC
> 10.9 µM

---

Examples of compounds with documented IC50 follow.
Target: Kdr (Homo sapiens)
Construct: Kinases are expressed as either kinase domains or full length constructs; made in house
Sequence (P35968 20-1356, species assumed): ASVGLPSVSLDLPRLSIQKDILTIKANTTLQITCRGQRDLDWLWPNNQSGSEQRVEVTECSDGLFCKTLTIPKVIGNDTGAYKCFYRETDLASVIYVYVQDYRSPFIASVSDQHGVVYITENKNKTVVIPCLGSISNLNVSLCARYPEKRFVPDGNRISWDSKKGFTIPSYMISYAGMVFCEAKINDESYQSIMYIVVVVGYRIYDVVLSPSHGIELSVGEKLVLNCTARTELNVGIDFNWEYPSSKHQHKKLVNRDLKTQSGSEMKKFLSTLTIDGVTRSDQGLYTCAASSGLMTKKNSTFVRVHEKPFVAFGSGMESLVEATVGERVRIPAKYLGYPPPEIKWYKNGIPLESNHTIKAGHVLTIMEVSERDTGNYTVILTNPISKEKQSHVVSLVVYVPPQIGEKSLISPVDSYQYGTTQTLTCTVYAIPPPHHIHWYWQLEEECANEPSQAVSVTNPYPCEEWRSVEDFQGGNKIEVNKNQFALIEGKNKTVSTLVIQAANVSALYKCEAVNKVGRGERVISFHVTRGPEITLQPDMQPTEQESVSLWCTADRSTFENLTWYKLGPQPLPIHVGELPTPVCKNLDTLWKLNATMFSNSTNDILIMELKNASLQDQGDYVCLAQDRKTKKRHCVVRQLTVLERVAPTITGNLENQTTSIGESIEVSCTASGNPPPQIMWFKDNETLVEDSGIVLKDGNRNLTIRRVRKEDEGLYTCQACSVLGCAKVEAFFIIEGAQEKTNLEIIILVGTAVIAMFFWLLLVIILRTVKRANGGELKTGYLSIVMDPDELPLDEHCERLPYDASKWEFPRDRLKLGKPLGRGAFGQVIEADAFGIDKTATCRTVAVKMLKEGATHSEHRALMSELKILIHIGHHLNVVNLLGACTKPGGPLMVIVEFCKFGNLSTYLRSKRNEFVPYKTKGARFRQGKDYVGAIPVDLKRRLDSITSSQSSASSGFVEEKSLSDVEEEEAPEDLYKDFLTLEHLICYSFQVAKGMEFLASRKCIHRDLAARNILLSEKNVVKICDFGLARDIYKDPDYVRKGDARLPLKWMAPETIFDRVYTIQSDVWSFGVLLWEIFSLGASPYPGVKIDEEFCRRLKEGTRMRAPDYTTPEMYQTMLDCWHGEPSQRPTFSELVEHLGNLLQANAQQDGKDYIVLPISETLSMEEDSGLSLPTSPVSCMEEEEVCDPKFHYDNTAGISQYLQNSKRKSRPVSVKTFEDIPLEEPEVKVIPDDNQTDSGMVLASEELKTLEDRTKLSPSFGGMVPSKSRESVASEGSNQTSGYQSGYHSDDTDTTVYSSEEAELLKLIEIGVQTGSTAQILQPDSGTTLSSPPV
Experiment: Kinase inhibition assay (33P transfer), Kdr
Format: biochemical
Conditions: Table 3, class symbols; read-out: KDR-1

The following compounds have reported results that may help.
> print(dat)
                            compound.smiles  value.type  experimental.result
1  COc1ccc(CNc2ncnc(Nc3cc(-c4ccco4)[nH]n3)n2)cc1OC        IC50       8.9 to 11.4 µM
2  COc1cc(Nc2ncnc(Nc3cc(Cl)c(NC(=O)c4ccccc4)cc3C)n2)cc(OC)c1OC        IC50      6.72 to 8.64 µM
3  Cc1cccc(Nc2ncnc(N(C)c3ccc4c(cnn4Cc4ccccc4)c3)n2)c1        IC50       5.69 to 8.3 µM

Identify measured IC50 corresponding to Nc1nc2ccccc2n1-c1ncnc(Nc2cccc(Cn3ccnn3)c2)n1
< 1.04 µM

Identify measured IC50 corresponding to c1cc(Nc2ncnc(Nc3cc(-c4ccco4)[nH]n3)n2)cc(-c2cnco2)c1
< 1.04 µM

Identify measured IC50 corresponding to COc1ccc(Nc2ncnc(Nc3ccc4c(cnn4Cc4ccccc4)c3)n2)cc1
0.945 to 5.67 µM

Identify measured IC50 corresponding to COc1ccc(Nc2ncnc(NCCc3ccc(Cl)c(Cl)c3)n2)cc1OC
5.71 to 8.33 µM

---

Target: ErbB2 (Homo sapiens, UniProt P04626)
Sequence (P04626 23-1255, species assumed): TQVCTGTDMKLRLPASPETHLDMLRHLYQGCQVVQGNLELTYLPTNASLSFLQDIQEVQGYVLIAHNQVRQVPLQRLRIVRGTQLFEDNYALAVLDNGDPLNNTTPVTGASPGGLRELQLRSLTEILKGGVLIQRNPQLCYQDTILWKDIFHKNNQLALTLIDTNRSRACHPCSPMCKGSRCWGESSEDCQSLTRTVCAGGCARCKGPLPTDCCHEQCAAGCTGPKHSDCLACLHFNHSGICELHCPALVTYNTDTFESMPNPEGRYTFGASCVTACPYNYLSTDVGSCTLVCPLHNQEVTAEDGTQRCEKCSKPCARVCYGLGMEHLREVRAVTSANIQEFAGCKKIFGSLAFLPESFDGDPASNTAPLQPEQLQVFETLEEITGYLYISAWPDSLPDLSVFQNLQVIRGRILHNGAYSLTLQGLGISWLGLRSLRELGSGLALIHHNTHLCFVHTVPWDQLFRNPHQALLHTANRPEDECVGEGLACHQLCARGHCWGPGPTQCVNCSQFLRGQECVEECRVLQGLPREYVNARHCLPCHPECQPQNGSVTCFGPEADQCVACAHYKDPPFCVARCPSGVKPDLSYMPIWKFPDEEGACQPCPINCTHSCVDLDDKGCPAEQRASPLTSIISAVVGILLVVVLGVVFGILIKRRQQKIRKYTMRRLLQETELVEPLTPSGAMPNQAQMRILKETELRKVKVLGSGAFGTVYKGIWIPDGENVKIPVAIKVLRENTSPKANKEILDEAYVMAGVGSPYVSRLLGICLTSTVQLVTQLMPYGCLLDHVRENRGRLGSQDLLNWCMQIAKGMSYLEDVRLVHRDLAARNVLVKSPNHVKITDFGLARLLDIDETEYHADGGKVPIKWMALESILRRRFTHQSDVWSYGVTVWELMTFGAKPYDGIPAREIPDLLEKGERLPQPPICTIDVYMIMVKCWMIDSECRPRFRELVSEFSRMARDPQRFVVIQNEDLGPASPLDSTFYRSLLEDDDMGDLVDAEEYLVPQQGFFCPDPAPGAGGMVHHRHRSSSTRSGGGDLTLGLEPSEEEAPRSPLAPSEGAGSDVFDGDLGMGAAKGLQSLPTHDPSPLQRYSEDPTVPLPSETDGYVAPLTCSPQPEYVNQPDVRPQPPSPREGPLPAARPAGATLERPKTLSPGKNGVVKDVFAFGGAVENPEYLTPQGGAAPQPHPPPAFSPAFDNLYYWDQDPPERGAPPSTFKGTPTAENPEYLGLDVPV
value_type: IC50

The following molecules have reported results that may help.
> print(dat)
                            compound.smiles  experimental.result
1  COc1cc(Nc2ncnc(-n3c(NCc4ccc(Cl)cc4)nc4ccccc43)n2)cc(OC)c1OC            > 8.69 µM
2  COc1cc(Nc2ncnc(Nc3cccc(C(C)=O)c3)n2)cc(OC)c1OC      1.01 to 6.07 µM
3   COc1ccc(Nc2ncnc(Nc3ccc4ncsc4c3)n2)cc1OC       6.31 to 9.2 µM
4  COc1cc(Nc2ncnc(-c3cccnc3Nc3ccc(C(F)(F)F)cc3)n2)cc(OC)c1OC            > 9.03 µM
5  COc1cc(Nc2ncnc(-n3c(NCc4ccccc4C)nc4ccccc43)n2)cc(OC)c1OC      7.03 to 9.04 µM
6  COc1ccc(Nc2ncnc(Nc3ccc4c(c3)C(=O)OC4)n2)cc1OC            > 11.9 µM
7   COc1cc(Nc2ncnc(NCc3ccccc3)n2)cc(OC)c1OC      6.53 to 9.53 µM

# ---- query molecule ----
Report value only: IC50, ErbB2 (Homo sapiens, UniProt P04626), COc1ccc(Nc2ncnc(Nc3cccc(C#N)c3)n2)cc1OC
> 12.9 µM

---

Examples of compounds with documented IC50 follow.
Target: EGFR (Homo sapiens)
Construct: Kinases are expressed as either kinase domains or full length constructs; made in house
Sequence (P00533 25-1210, species assumed): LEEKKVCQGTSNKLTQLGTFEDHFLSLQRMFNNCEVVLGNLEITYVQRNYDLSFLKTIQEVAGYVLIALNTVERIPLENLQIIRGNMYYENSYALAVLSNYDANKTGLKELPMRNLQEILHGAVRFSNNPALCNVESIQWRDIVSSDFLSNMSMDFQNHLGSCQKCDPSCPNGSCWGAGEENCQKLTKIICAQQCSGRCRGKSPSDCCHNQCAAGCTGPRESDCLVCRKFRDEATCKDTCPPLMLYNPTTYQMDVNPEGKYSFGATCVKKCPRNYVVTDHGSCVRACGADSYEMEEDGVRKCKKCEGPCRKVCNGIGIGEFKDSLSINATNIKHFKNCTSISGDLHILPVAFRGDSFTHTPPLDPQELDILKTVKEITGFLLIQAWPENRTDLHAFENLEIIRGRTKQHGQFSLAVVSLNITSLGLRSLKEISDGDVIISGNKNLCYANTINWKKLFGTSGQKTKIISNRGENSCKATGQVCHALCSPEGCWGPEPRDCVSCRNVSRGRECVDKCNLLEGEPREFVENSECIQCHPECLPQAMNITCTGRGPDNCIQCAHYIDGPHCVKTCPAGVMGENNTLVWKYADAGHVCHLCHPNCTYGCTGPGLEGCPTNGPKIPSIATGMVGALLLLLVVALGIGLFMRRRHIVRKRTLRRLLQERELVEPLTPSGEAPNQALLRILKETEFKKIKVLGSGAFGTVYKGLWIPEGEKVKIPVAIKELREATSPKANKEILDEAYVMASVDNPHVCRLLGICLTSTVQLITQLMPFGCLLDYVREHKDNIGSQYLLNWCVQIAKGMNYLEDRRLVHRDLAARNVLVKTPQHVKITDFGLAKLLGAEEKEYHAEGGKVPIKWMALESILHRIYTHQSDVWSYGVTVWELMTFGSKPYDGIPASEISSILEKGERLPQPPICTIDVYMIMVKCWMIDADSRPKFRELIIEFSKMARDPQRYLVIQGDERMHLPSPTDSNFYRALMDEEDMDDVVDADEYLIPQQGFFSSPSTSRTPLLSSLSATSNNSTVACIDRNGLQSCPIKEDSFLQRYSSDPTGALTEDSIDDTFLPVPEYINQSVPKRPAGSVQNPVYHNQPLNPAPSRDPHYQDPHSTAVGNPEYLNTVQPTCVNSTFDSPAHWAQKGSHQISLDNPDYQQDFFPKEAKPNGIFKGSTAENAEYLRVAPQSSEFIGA
Assay: Kinase inhibition assay (33P transfer), EGFR
Type: biochemical
Details: Table 2, kinase inhibition class; read-out: EGFR-1

The following compounds have reported results that may help.
> print(dat)
                                   compound      measured.target  experimental.result
1  COc1ccc(Nc2nc3ccccc3n2-c2ncnc(Nc3cc(OC)c(OC)c(OC)c3)n2)cc1OC  EGFR (Homo sapiens)             > 8.5 µM
2  COc1cc(Nc2ncnc(-n3c(N[C@@H](CO)c4ccccc4)nc4ccccc43)n2)cc(OC)c1OC  EGFR (Homo sapiens)     0.779 to 4.67 µM
3  c1ccc(COc2cccc(Nc3ncnc(-c4cccs4)n3)c2)cc1  EGFR (Homo sapiens)            > 12.5 µM

Identify measured IC50 corresponding to COc1cc(Nc2ncnc(N3c4ccc(F)cc4CCC3C)n2)cc(OC)c1OC (centres unmarked)
0.94 to 5.64 µM

Identify measured IC50 corresponding to COc1cc(Nc2ncnc(-n3c(=O)[nH]c4ccccc43)n2)cc(OC)c1OCCN1CCOCC1
4.86 to 7.09 µM

Identify measured IC50 corresponding to COc1cc(Nc2ncnc(Nc3cccc(Br)c3)n2)cc(OC)c1OC
< 0.925 µM

---

Molecular target: Itk (Homo sapiens)
Construct: Kinases are expressed as either kinase domains or full length constructs; made in house
Sequence (Q08881 1-620): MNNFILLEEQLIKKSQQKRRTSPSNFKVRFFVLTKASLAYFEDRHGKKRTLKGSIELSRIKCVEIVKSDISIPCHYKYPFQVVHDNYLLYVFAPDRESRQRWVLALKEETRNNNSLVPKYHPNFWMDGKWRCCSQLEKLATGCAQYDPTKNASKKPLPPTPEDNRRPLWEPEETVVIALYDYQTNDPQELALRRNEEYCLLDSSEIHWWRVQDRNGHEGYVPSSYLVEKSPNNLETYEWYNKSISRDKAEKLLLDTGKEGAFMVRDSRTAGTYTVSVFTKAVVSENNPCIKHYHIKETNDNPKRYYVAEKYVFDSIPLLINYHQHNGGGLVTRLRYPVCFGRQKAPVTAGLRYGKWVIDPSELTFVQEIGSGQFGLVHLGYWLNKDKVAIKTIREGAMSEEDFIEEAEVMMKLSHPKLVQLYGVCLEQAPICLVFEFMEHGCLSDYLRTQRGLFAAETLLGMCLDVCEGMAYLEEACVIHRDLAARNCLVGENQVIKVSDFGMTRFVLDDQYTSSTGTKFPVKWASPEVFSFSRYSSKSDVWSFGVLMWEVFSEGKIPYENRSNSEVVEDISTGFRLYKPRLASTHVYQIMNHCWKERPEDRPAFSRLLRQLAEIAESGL
Test: Kinase inhibition assay (33P transfer), Itk
Assay type: biochemical
Details: Table 3; read-out: Itk-1
pIC50: −log10 of the molar value.
Examples of compounds with documented pIC50 follow.

The following compounds have reported results that may help.
> print(dat)
                            compound.smiles  experimental.result
1  COc1cc(Nc2ncnc(N3CCc4ccccc4C3)n2)cc(OC)c1OC               < 4.94
2  COc1ccc2c(c1)c(CCNC(C)=O)cn2-c1ncnc(Nc2cc(OC)c(OC)c(OC)c2)n1               < 5.04
3  COc1cc(Nc2ncnc(N(CCC(C)C)c3ccc(Cl)cc3)n2)cc(OC)c1OC               < 5.01
4  COc1cc(Nc2ncnc(Nc3ccc4c(ccn4Cc4ccccc4)c3)n2)cc(OC)c1OC               < 5.03
5  CCOC(=O)Cc1cn(-c2ncnc(Nc3cc(OC)c(OC)c(OC)c3)n2)c2ccccc12               < 5.01

Identify measured pIC50 corresponding to COc1cc(Nc2ncnc(Nc3ccc(C(=O)O)cc3)n2)cc(OC)c1OC
< 4.95
